Reported pKd by item:
Molecular target: T1, human IL-18BP (Homo sapiens, UniProt O95998)
T1 construct: His
T1 sequence (O95998 31-194): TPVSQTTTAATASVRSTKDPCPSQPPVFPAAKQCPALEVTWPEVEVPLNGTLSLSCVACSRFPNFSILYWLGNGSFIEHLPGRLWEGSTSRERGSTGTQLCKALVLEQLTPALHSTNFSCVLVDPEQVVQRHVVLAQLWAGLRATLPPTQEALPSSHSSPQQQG
Assay: IL-18BP binding alphaLISA assay (Example 4, used in Example 22B)
Details: IL-18BP AlphaLISA
Procedure: A human IL-18BP AlphaLISA Assay Kit is used to determine the binding affinity of each immunocytokine and IL-18 variant for IL-18BP, which detected the presence of free form IL-18BP. […] After 1 hr incubation at room temperature, free IL-18BP levels are measured using a Human IFNγ AlphaLISA Assay Kit. […] The AlphaLisa signal is then measured on an Enspire plate reader with 680 and 615 nm as excitation and emission wavelengths, respectively. […]
pKd: −log10 of the molar value.
ASSAY READOUT: pKd

MOLECULE	OPERATOR	OBSERVED MEASUREMENT
SEQ ID NO: 70: IL-18 polypeptide: N-terminal G, E6K, V11I, C38A, M51G, K53A, T63A, C76A, C127A (protein, N-terminal G, IL-18 polypeptide: N-terminal G, E6K, V11I, C38A, M51G, K53A, T63A, C76A, C127A) GYFGKLKSKLSIIRNLNDQVLFIDQGNRPLFEDMTDSDARDNAPRTIFIISGYADSQPRGMAVAISVKCEKISTLSAENKIISFKEMNPPDNIKDTKSDIIFFQRSVPGHDNKMQFESSSYEGYFLAAEKERDLFKLILKKEDELGDRSIMFTVQNED	<	5.55
SEQ ID NO: 71: IL-18 polypeptide: N-terminal G, E6K, V11I, C38A, K53A, T63A, C76A, C127A (protein, N-terminal G, IL-18 polypeptide: N-terminal G, E6K, V11I, C38A, K53A, T63A, C76A, C127A) GYFGKLKSKLSIIRNLNDQVLFIDQGNRPLFEDMTDSDARDNAPRTIFIISMYADSQPRGMAVAISVKCEKISTLSAENKIISFKEMNPPDNIKDTKSDIIFFQRSVPGHDNKMQFESSSYEGYFLAAEKERDLFKLILKKEDELGDRSIMFTVQNED	<	5.55
C152: IL-18 polypeptide: V11I, S36A, C38A, K53A, C76A, C127A (protein) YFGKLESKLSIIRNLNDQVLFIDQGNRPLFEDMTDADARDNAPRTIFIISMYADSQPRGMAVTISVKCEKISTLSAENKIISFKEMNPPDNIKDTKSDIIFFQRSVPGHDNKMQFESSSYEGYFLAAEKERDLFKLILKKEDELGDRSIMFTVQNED	=	8.95
C164: IL-18 polypeptide: V11I, C38A, S55H, C76A, C127A (protein) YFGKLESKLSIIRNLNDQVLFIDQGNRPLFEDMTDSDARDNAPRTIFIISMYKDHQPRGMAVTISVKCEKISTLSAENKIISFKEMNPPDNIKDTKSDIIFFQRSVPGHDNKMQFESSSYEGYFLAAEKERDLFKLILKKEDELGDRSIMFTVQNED	=	10.10
60 (protein) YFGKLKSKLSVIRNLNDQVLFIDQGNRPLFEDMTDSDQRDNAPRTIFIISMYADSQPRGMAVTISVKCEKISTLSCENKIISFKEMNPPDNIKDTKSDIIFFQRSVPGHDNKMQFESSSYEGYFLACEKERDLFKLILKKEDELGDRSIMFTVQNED	=	7.61
C153: IL-18 polypeptide: V11I, D37A, C38A, K53A, C76A, C127A (protein) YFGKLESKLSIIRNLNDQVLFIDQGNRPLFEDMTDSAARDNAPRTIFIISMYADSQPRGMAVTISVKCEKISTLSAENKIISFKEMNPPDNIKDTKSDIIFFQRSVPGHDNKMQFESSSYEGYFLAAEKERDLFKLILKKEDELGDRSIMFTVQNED	=	8.34
C145: IL-18 polypeptide: V11I, C38A, K53A, S55A, C76A, C127A (protein) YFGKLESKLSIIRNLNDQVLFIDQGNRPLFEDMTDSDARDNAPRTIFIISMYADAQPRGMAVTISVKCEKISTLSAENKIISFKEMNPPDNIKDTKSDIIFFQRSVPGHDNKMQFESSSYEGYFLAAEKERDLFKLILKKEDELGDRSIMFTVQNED	=	8.01
C159: IL-18 polypeptide: V11I, C38A, K53A, C76A, H109A, C127A (protein) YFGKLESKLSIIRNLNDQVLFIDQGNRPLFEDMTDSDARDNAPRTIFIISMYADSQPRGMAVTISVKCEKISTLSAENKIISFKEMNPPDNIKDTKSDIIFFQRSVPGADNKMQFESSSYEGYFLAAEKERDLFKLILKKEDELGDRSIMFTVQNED	=	9.26
42 (protein) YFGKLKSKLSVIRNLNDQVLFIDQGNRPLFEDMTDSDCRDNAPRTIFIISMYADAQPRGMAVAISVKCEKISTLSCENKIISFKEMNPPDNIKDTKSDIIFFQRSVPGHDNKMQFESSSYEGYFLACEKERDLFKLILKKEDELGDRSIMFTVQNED	=	6.09
C142: IL-18 polypeptide: Y1M, E6K, V11I, C38A, K53A, T63A, C76A, C127A (protein) MFGKLKSKLSIIRNLNDQVLFIDQGNRPLFEDMTDSDARDNAPRTIFIISMYADSQPRGMAVAISVKCEKISTLSAENKIISFKEMNPPDNIKDTKSDIIFFQRSVPGHDNKMQFESSSYEGYFLAAEKERDLFKLILKKEDELGDRSIMFTVQNED	=	8.65
C167: IL-18 polypeptide: V11I, C38A, C76A, S105I, C127A (protein) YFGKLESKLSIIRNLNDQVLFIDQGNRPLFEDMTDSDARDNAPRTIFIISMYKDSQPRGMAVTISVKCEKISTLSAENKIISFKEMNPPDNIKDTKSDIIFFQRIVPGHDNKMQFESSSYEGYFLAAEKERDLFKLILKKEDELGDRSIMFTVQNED	=	10.40
